Tested System: PRC2-AEBP2 mt1 (Homo sapiens, UniProt Q15910;Q15022;O75530;Q09028;Q6ZN18 1-746;1-739;1-441;1-425;1-517, R27A;R31A;F165A;R355A)
Test Description: fluorescence anisotropy
pKd: −log10 of the molar value.

Binder | pKd
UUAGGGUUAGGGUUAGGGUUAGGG (structured_RNA) [G4 24 RNA] | 6.76
